Target: DNA-3-methyladenine glycosylase (Homo sapiens);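 also: enzyme assay where MPG cuts a quenched duplex DNA oligonucleotide probe, paired with APE1 for strand incision and turnover, read as fluorescence at 594 nm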
Settings: Compound Concentration 10.0 uM, Hit No
Description: Inhibition of MPG by quantifying inhibition of MPG-mediated cleavage and dissociation of quenched duplex DNA oligonucleotides, measured as fluorescence at 594 nm. To generate a functional strand incision and increase turn-over this assay is coupled to APE1.
observable: inhibition (%)

smiles-repr: CCCn1c(=O)c2nc(C34CC5CC(CC3C5)C4)[nH]c2n(CCC)c1=O
observable: inhibition
output-unit: %
experimental-value: -7.5
//
smiles-repr: Cn1cc(C(=O)OCC2CCN(CCNS(C)(=O)=O)CC2)c2ccccc21
observable: inhibition
output-unit: %
experimental-value: 11.2
//
smiles-repr: CCCCC(=O)N(Cc1ccc(-c2ccccc2C(=O)O)cc1)c1ccccc1
observable: inhibition
output-unit: %
experimental-value: 11.5
//
smiles-repr: CCCCCCCC/C=C\CCCCCCCC(N)=O
observable: inhibition
output-unit: %
experimental-value: 17.3
//
smiles-repr: CC1(C)CC(=O)c2c(SCCO)sc(-c3nccs3)c2C1
observable: inhibition
output-unit: %
experimental-value: 8.86
//
smiles-repr: Cc1c(C(=O)NC2CCCCC2)sc2nc3ccc(N)cc3n12
observable: inhibition
output-unit: %
experimental-value: -4.14
